- TARGET ENTITY: Muscarinic acetylcholine receptor M1 (Homo sapiens) (UniProt P11229)
- Sequence (P11229 whole entry): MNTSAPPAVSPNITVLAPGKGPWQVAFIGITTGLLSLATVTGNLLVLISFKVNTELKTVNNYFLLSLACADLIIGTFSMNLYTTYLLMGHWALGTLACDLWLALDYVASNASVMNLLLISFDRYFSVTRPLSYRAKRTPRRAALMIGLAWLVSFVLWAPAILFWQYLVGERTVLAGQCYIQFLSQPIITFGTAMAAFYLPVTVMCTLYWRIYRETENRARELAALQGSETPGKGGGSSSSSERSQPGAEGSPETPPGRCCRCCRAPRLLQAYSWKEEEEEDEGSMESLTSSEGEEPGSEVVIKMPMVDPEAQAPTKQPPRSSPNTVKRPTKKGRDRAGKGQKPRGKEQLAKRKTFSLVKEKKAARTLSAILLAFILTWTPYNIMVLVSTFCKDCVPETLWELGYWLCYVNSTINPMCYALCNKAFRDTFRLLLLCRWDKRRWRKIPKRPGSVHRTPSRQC
- MEASUREMENT NOTES: Allosteric agonist activity at human muscarinic M1 receptor expressed in CHO Flp-In cells assessed as intrinsic activity measured as IP1 accumulation after 1 hr by HTRF method
- Format: functional, cell-based
Assign labels as follows, please: t for Intrinsic activity below 0.8; f for Intrinsic activity equal to or exceeding 0.8.

IN: Take the compound O=c1cc(-c2ccccc2NCc2ccc(-c3cccnc3)cc2)ccn1[C@H]1CCCC[C@@H]1O (racemic) and say whether its Intrinsic activity is less than 0.8.
OUT: t

IN: Could you please tell me whether Intrinsic activity recorded for O=c1cc(-c2ccccc2OCc2cccc(C(F)(F)F)c2)ccn1[C@H]1CCCC[C@@H]1O (racemic) is less than 0.8?
OUT: f

IN: Hi there! Is Intrinsic activity for CCn1cc(-c2ccc(COc3ccccc3-c3ccn([C@H]4CCCC[C@@H]4O)c(=O)c3)cc2)cn1 (racemic) below 0.8, do you know?
OUT: f

IN: Is Intrinsic activity strictly under 0.8 for the entry O=c1cc(-c2ccccc2OCc2ccc(F)cc2)ccn1[C@H]1CCCC[C@@H]1O (racemic) ?
OUT: f

IN: Identify whether the compound Cn1cc(-c2ccc(COc3c(F)ccc(F)c3-c3ccn([C@H]4CCCC[C@@H]4O)c(=O)c3)cc2)cn1 (racemic) records Intrinsic activity below 0.8.
OUT: f

IN: Quick check: does Cn1cc(-c2ccc(COc3ccccc3-c3cc(=O)n([C@H]4CCCC[C@@H]4O)cn3)cc2)cn1 (racemic) have Intrinsic activity under 0.8?
OUT: f

IN: Please let me know if O=c1cc(-c2ccccc2NCc2ccc(-c3cncnc3)cc2)ccn1[C@H]1CCCC[C@@H]1O (racemic) shows Intrinsic activity below 0.8.
OUT: f

IN: Is it true that Intrinsic activity reported for O=c1cc(-c2ccccc2OCc2ccc(-c3ncco3)cc2)ccn1[C@H]1CCCC[C@@H]1O (racemic) is less than 0.8?
OUT: t

IN: Record COc1ccc(COc2ccccc2-c2ccn([C@H]3CCCC[C@@H]3O)c(=O)c2)cc1 (racemic) : is its Intrinsic activity strictly below 0.8?
OUT: t

IN: Quick check: Intrinsic activity of N#Cc1ccc(COc2ccccc2-c2ccn([C@H]3CCCC[C@@H]3O)c(=O)c2)cc1 (racemic) under 0.8?
OUT: t

IN: Hi there! Is Intrinsic activity for O=c1cc(-c2ccccc2OCc2ccc(C(F)(F)F)cc2)ccn1[C@H]1CCCC[C@@H]1O (racemic) below 0.8, do you know?
OUT: t

IN: Does the reported Intrinsic activity of O=c1cc(-c2ccccc2OCc2ccc(-c3cccnc3)cc2)ccn1[C@H]1CCCC[C@@H]1O (racemic) stay below 0.8?
OUT: t

IN: Lab note: Intrinsic activity threshold 0.8. Does this compound come in strictly under it? O=c1cc(-c2ccccc2OCc2ccc(-c3cncnc3)cc2)ccn1[C@H]1CCCC[C@@H]1O (racemic)
OUT: t

IN: In plain terms, does O=c1cc(-c2ccccc2OCc2ccc(-c3cnn(C4CCCC4)c3)cc2)ccn1[C@H]1CCCC[C@@H]1O (racemic) come in under 0.8 for Intrinsic activity?
OUT: t

----------
- TARGET ENTITY: Muscarinic acetylcholine receptor M1 (Homo sapiens)
- MEASUREMENT NOTES: Allosteric agonist activity at human muscarinic M1 receptor expressed in CHO Flp-In cells assessed as intrinsic activity measured as IP1 accumulation after 1 hr by HTRF method
- Type: functional, cell-based
ASSAY READOUT: log(IA)
The answer should be written as a number, with no unit following it.

IN: Specify log(IA) for N#Cc1ccc(COc2ccccc2-c2ccn([C@H]3CCCC[C@@H]3O)c(=O)c2)cc1 (racemic) and stop.
OUT: -0.73

IN: Given O=c1cc(-c2ccccc2OCc2ccc(-c3cncnc3)cc2)ccn1[C@H]1CCCC[C@@H]1O (racemic) , respond with its log(IA).
OUT: -0.8

IN: Please report log(IA) for the following molecule: O=c1cc(-c2ccccc2OCc2ccccc2)ccn1[C@H]1CCCC[C@@H]1O (racemic)
OUT: -0.24

IN: Give a short answer stating reported log(IA) for Cn1cc(-c2ccc(COc3ccccc3-c3ccn([C@H]4CCCC[C@@H]4O)c(=O)c3)cc2)cn1 (racemic) .
OUT: -0.68

IN: Hello, please tell me recorded log(IA) for this one: NC(=O)c1cccc(COc2ccccc2-c2ccn([C@H]3CCCC[C@@H]3O)c(=O)c2)c1 (racemic)
OUT: -3

IN: Return log(IA) for the following molecule: COc1cccc(COc2ccccc2-c2ccn([C@H]3CCCC[C@@H]3O)c(=O)c2)c1 (racemic)
OUT: 0.16

IN: Tell me its log(IA) given N#Cc1cccc(COc2ccccc2-c2ccn([C@H]3CCCC[C@@H]3O)c(=O)c2)c1 (racemic) as the entry.
OUT: -0.59

IN: Retrieve log(IA) measured for NC(=O)c1ccc(COc2ccccc2-c2ccn([C@H]3CCCC[C@@H]3O)c(=O)c2)cc1 (racemic) and print it.
OUT: 0.05

IN: Return value of log(IA) for input Cn1cc(-c2ccc(COc3ccccc3-c3ccn([C@H]4CCCC[C@@H]4O)c(=O)c3)c(F)c2)cn1 (racemic) , no commentary.
OUT: -0.37

IN: Fill in reported log(IA) for this entry: O=c1cc(-c2ccccc2OCc2ccc(-c3cnn(C4CCCCC4)c3)cc2)ccn1[C@H]1CCCC[C@@H]1O (racemic)
OUT: -0.29

IN: Report log(IA), nothing else, for this molecule: O=c1cc(-c2ccccc2OCc2ccc(-c3ncco3)cc2)ccn1[C@H]1CCCC[C@@H]1O (racemic)
OUT: -0.24

IN: Determine its reported log(IA): O=c1cc(-c2ccccc2OCc2cccc(C(F)(F)F)c2)ccn1[C@H]1CCCC[C@@H]1O (racemic)
OUT: 0.01

IN: Read the entry O=c1cc(-c2ccccc2OCc2cccc(F)c2)ccn1[C@H]1CCCC[C@@H]1O (racemic) and write its reported log(IA).
OUT: -0.11
